# Measurement Notes: label from the status in PepcDB records
Observed Property: protein production

| Entry Sequence | Observed Property | Meas Value |
| --- | --- | --- |
| MFPSFITHIQSPNSHHHYSSPSFPFSSDFLESFDESFLINQFLLQQQDVAANVVESPWKFCKKLELKKKNEKCVDGSTSQEVQWRRTVKKRDRHSKICTAQGPRDRRMRLSLQIARKFFDLQDMLGFDKASKTIEWLFSKSKTSIKQLKERVAASEGGGKDEHLQVDEKEKDETLKLRVSKRRTKTMESSFKTKESRERARKRARERTMAKMKMRLFETSETISDPHQETREIKITNGVQLLEKENKEQEWSNTNDVHMVEYQMDSVSIIEKFLGLTSDSSSSSIFGDSEECYTSLSSVRGTISAAGNSNVLTKNPN | protein production | failed |
| MRIIIVGGGKVGYQVARQCAAWGCDVVLVENDRQKGEKIKGELGLQVVIGDGTKAHFLKKAGAEEADIVVAVTDDDQDNLVICQLAERQFKAKRTLALVNNPGNEKLFRWLGVNQVIGPASLILGLIQERVDMDSTAAMWMQGIKDLKMIQFKLGPEAPVLGRKIKTIPFPNECILVTVVRENTAIVPCGNTVLEEGDLVFALANPAVQAELERVLTGKNDN | protein production | failed |
| MRSTEVGRVVEDFIVLPPTPKSKWKLSDFELLHKLGGGNYGDVHLASVKDCNFVCALKRLSIKKLADFDIATQLRREIEIAFNTRHKYLLRTYAYFFDETDIYLIMEPCSNGMLYTELNRVKCFAPPTAARYVAQLAEALLYLHQHHILHRDIKPENILLDHNNNIKLADFGWSVHDPDNRRKTSCGTPEYFPPEIVGRQAYDTSADLWCLGIFCYELLVGKTPFVGKDTDQICKNIHSMHFKIPENIPSEAKDLIANLLLRDGSRRLALHRVVNHQFLLKYYYLPNNLQPPTGKRPRLDAEPTAGKEN | protein production | failed |

Origin of values: a protein production outcome set (Wang et al. 2014)
